Recorded values, source patent US20180105492A1.

inhibition at 1 µM reference
# Tested on: SH-SY5Y cells
# ASSAY_REMARKS: Neuroprotection against rotenone/oligomycin A, pre- and co-incubation model, MTT
# Format: cell-based
# EXPERIMENTAL_CONTEXT: Homo sapiens, compound 1 μM pre-incubation 24 h and co-incubation 24 h with Rot/Olig (30/10 μM), read-out: % Protection
QUANTITY_KIND: inhibition at 1 µM

>>> df
                                   compound  result
0  CC(=O)NCCc1c[nH]c2ccc(OC(=O)/C=C/c3cccc(C(F)(F)F)c3)cc12 [Compound 14]   45.9%
1  CC(=O)NCCc1c[nH]c2ccc(OC(=O)/C=C/c3ccc([N+](=O)[O-])cc3)cc12 [Compound 16]   29.5%
2  CC(=O)NCCc1c[nH]c2ccc(OC(=O)/C=C/c3ccc(F)cc3)cc12 [Compound 9]   40.5%
3  CC(=O)NCCc1c[nH]c2ccc(OC(=O)/C=C/c3ccc(Cl)cc3)cc12 [Compound 11]   28.4%
